- System: NCI-H1618 multicellular tumor spheroid viability
- METHOD: Anticancer human tumor NCI-H1618 cell line growth inhibition;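 also: spheroids exposed to agents for 7 days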
- EXPERIMENTAL_CONTEXT: second compound 94.9 pM; first compound 1 µM; active compounds read low
RESULT_TYPE: viability, T/C

COMPOUND	SUBJECT_OF_TEST	viability, T/C
[2H]c1nc(C)nc([2H])c1-c1cc(NC[C@@H](C)c2cccc3c(C(=O)NC)ccnc23)ncn1 + COc1cc2c(cc1O)CCNC21CSC2c3c(OC(C)=O)c(C)c4c(c3C(COC1=O)N1C(O)C3Cc5cc(C)c(OC)c(O)c5C(C21)N3C)OCO4	NCI-H1618 multicellular tumor spheroid viability	55.4%
CC1COCCN1c1cc(-c2ccnn2C)c2ccnc(-c3ccn[nH]3)c2n1 (centres undefined) + COc1cc2c(cc1O)CCNC21CSC2c3c(OC(C)=O)c(C)c4c(c3C(COC1=O)N1C(O)C3Cc5cc(C)c(OC)c(O)c5C(C21)N3C)OCO4	NCI-H1618 multicellular tumor spheroid viability	2.1%

Form: compound = CC(C)n1c(=O)n(C)c2cnc3cc(F)c(-c4ccc(OCCCN5CCCCC5)nc4)cc3c21 + COc1cc2c(cc1O)CCNC21CSC2c3c(OC(C)=O)c(C)c4c(c3C(COC1=O)N1C(O)C3Cc5cc(C)c(OC)c(O)c5C(C21)N3C)OCO4 ; viability, T/C = 42.7%

Form: compound = COc1ccc([C@@H](O)c2cc(-c3ncnc4cc(N5CCOCC5)ccc34)c(F)cc2Cl)nn1 + COc1cc2c(cc1O)CCNC21CSC2c3c(OC(C)=O)c(C)c4c(c3C(COC1=O)N1C(O)C3Cc5cc(C)c(OC)c(O)c5C(C21)N3C)OCO4 ; viability, T/C = 65.7%

---

- Tested on: NCI-H1618 multicellular tumor spheroid viability
- METHOD: Anticancer human tumor NCI-H1618 cell line growth inhibition;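 also: spheroids exposed to agents for 7 days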
- EXPERIMENTAL_CONTEXT: second compound 1 µM; first compound 0.3 µM; active compounds read low
Reported viability, T/C values for a set of molecules
Please state the figure in %; there is no need to write the unit.

MOLECULE	UNIT_OF_MEASURE	viability, T/C
CNCc1ccc(-c2cc(-c3nc(-c4ccc(S(=O)(=O)C(C)C)cc4)cnc3N)on2)cc1 + Cn1nnc2c(C(N)=O)ncn2c1=O	%	9.42
Cc1sc2c(c1C)C(c1ccc(Cl)cc1)=NC(CC(=O)Nc1ccc(O)cc1)c1nnc(C)n1-2 (centres undefined) + Cn1nnc2c(C(N)=O)ncn2c1=O	%	72
Cn1ncnc1[C@H]1c2n[nH]c(=O)c3cc(F)cc(c23)N[C@@H]1c1ccc(F)cc1 + Cn1nnc2c(C(N)=O)ncn2c1=O	%	1.85

Let us examine a further case.
Observed viability, T/C on NCI-H1618 multicellular tumor spheroid viability, entry O=C(c1cc(Cc2n[nH]c(=O)c3ccccc23)ccc1F)N1CCN(C(=O)C2CC2)CC1 + Cn1nnc2c(C(N)=O)ncn2c1=O , equals 22.5

---

- System: NCI-H1618 multicellular tumor spheroid viability
- METHOD: Anticancer human tumor NCI-H1618 cell line growth inhibition; active means viability on the fitted dose curve at most 10% of control; inactive means the rest;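 also: spheroids exposed to agents for 7 days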
- EXPERIMENTAL_CONTEXT: second compound 100 µM; first compound 10 µM
- Experimental: Multicellular complex tumor spheroid response to DNA repair inhibitors in combination with DNA-damaging drugs This study explores the anticancer activities of DNA-damaging drugs and inhibitors of DNA damage repair, both as single agents and in combinations. […] Twenty-six patient-derived or established malignant cell lines were evaluated representing sarcoma, melanoma, small cell lung cancer (SCLC), non-small cell lung cancer (NSCLC), as well as bladder, ovarian and pancreatic cancers. […]
Would you mind answering with one of these outcomes? Y = active, N = inactive

Example entries begin here.
COMPOUND	CATEGORY
CC1COCCN1c1cc(-c2ccnn2C)c2ccnc(-c3ccn[nH]3)c2n1 (stereo unspecified) + Cn1nnc2c(C(N)=O)ncn2c1=O	Y
CC(C)n1c(=O)n(C)c2cnc3cc(F)c(-c4ccc(OCCCN5CCCCC5)nc4)cc3c21 + Cn1nnc2c(C(N)=O)ncn2c1=O	N
Cc1cc(C)c(CNC(=O)c2cc(-c3ccc(CN4CCOCC4)cc3)cc3c2cnn3C2CCCC2)c(=O)[nH]1 + Cn1nnc2c(C(N)=O)ncn2c1=O	N
COc1cc(C)[nH]c(=O)c1CN1CCc2c(Cl)cc(C(OC)C3COC3)c(Cl)c2C1=O (stereo unspecified) + Cn1nnc2c(C(N)=O)ncn2c1=O	N
COc1ccc([C@@H](O)c2cc(-c3ncnc4cc(N5CCOCC5)ccc34)c(F)cc2Cl)nn1 + Cn1nnc2c(C(N)=O)ncn2c1=O	N

Please find the next compound below.
Q: # outcome recorded in this test, key = [2H]c1nc(C)nc([2H])c1-c1cc(NC[C@@H](C)c2cccc3c(C(=O)NC)ccnc23)ncn1 + Cn1nnc2c(C(N)=O)ncn2c1=O
A: N
